system: MCF7; assay: Antiproliferative activity against human MCF7 cells after 48 hrs by MTT assay; format: functional, cell-based; conditions: MCF7, 48 h
Measured IC50, listed per entry.
PARAMETER: IC50 (µM)

MOLECULE	RESULT MODIFIER	REPORTED VALUE
CC(=O)Nc1ccc(N(Cc2ccc(C)cc2C)C(C)=O)c(SCc2ccc(C)cc2C)c1	=	7.33
CC(=O)Nc1ccc(N(CC2CCCCC2)C(C)=O)c(SCC2CCCCC2)c1	=	16.6
O=c1[nH]cc(F)c(=O)[nH]1 [FLUOROURACIL]	=	3.18
CCCCCCSc1cc(NC(C)=O)ccc1N(CCCCCC)C(C)=O	=	24.9
CCCCCCSc1cc(NC(C)=O)ccc1N(Cc1ccc(C)cc1C)C(C)=O	=	21.6
CC(=O)Nc1ccc(N(CC2CCCCC2)C(C)=O)c(SCc2ccc(C)cc2C)c1	=	20.8
CCCCCCSc1cc(NC(C)=O)ccc1N(CC1CCCCC1)C(C)=O	=	21
CC(=O)Nc1ccc(N(Cc2ccc(C)cc2C)C(C)=O)c(SCC2CCCCC2)c1	=	25.2
CCCCCCN(C(C)=O)c1ccc(NC(C)=O)cc1SCC1CCCCC1	=	20.4
CCCCCCN(C(C)=O)c1ccc(NC(C)=O)cc1SCc1ccc(C)cc1C	=	20.7
CS(=O)(=O)Nc1ccc([N+](=O)[O-])cc1Oc1ccccc1 [NIMESULIDE]	>	100

---

system: MCF7; assay: Antiproliferative activity against human MCF7 cells assessed as cell proliferation at 30 uM after 48 hrs by MTT assay relative to control; assay type: functional; conditions: MCF7, 48 h, read-out: Activity
# note: exactly 90% is not below, so it is FALSE; use TRUE for growth at 30 µM strictly under it

SMILES ENTRY	QUALITATIVE LABEL
CCCCCCN(C(C)=O)c1ccccc1OCCC	TRUE
CCN(CC)c1ccccc1SC	FALSE
CCSc1ccccc1N(CC)C(C)=O	FALSE
CC(=O)N(Cc1ccccc1)c1ccccc1SCc1ccccc1	TRUE

---

Measured viability at 48 h, 30 µM, listed per entry.
test: Antiproliferative activity against NHDF assessed as cell proliferation at 30 uM after 48 hrs by MTT assay relative to control; type: cell-based; details: human, NHDF cells; read-out: Activity
PARAMETER: viability at 48 h, 30 µM (%)

COMPOUND	PARAMETER	REPORTED VALUE
CCCCCCN(C(C)=O)c1ccc(NC(C)=O)cc1SCC1CCCCC1	viability at 48 h, 30 µM	98.2
CC(=O)Nc1ccc(N(CC2CCCCC2)C(C)=O)c(SCc2ccc(C)cc2C)c1	viability at 48 h, 30 µM	79.7
CC(=O)Nc1ccc(N(Cc2ccc(C)cc2C)C(C)=O)c(SCC2CCCCC2)c1	viability at 48 h, 30 µM	80.5
O=c1[nH]cc(F)c(=O)[nH]1	viability at 48 h, 30 µM	86.8
CS(=O)(=O)Nc1ccc([N+](=O)[O-])cc1Oc1ccccc1 [NIMESULIDE]	viability at 48 h, 30 µM	89.3
CC(=O)Nc1ccc(N(Cc2ccc(C)cc2C)C(C)=O)c(SCc2ccc(C)cc2C)c1	viability at 48 h, 30 µM	89.9
CCCCCCSc1cc(NC(C)=O)ccc1N(Cc1ccc(C)cc1C)C(C)=O	viability at 48 h, 30 µM	80.1
CCCCCCSc1cc(NC(C)=O)ccc1N(CC1CCCCC1)C(C)=O	viability at 48 h, 30 µM	82.8
CC(=O)Nc1ccc(N(CC2CCCCC2)C(C)=O)c(SCC2CCCCC2)c1	viability at 48 h, 30 µM	86.2
CCCCCCSc1cc(NC(C)=O)ccc1N(CCCCCC)C(C)=O	viability at 48 h, 30 µM	93.6
CCCCCCN(C(C)=O)c1ccc(NC(C)=O)cc1SCc1ccc(C)cc1C	viability at 48 h, 30 µM	83
CCCCCCSc1cc([N+](=O)[O-])ccc1N(CCCCCC)C(C)=O	viability at 48 h, 30 µM	111
